# assayRemarks: Multiple dose study: plasma pharmacokinetics and urinary excretion
# Assay type: in vivo, humans
# experimentalContext: male, human, plasma, oral, 1000 mg, eplerenone 1000 mg Dose; Multiple Dose; read-out: T½ (converted)
measure: half-life (h)
Respond numerically; units are h and should not be typed.

# return recorded half-life for entry COC(=O)C1CC2=CC(=O)CCC2(C)C23OC2CC2(C)C(CC[C@@]24CCC(=O)O4)C13 (stereo partly shown) 6.2

====

# assayRemarks: Single dose study: plasma pharmacokinetics of eplerenone, open lactone ring form, spironolactone
# experimentalContext: male, human, plasma, po, 50 mg
concentration at 72 h values, listed per item
Respond numerically; units are ng/mL and should not be typed.

# molecule, valueMeasured
measured = [
    ("COC(=O)C1CC2=CC(=O)CCC2(C)C23OC2CC2(C)C(CC[C@@]24CCC(=O)O4)C13 (some centres unmarked) [eplerenone]", 0),
]

We now examine a further molecule.
# return recorded concentration at 72 h for entry CC(=O)S[C@@H]1CC2=CC(=O)CC[C@]2(C)[C@H]2CC[C@@]3(C)[C@@H](CC[C@@]34CCC(=O)O4)[C@H]12 [spironolactone, Spironolactone, reference compound] 0

====

# assayRemarks: Multiple dose study: plasma pharmacokinetics and urinary excretion
# Type: in vivo, humans
# experimentalContext: male, human, plasma, oral, 100 mg, eplerenone 100 mg Dose; Single Dose
measure: AUC

# return recorded AUC for entry COC(=O)C1CC2=CC(=O)CCC2(C)C23OC2CC2(C)C(CC[C@@]24CCC(=O)O4)C13 (stereo partly shown) [eplerenone] 11300 ng·h/mL

====

# assayRemarks: Multiple dose study: plasma pharmacokinetics and urinary excretion
# Type: in vivo, humans
# experimentalContext: male, human, plasma, oral, 100 mg, eplerenone 100 mg Dose; Multiple Dose
# Method: Multiple oral dose tolerability and the pharmacokinetics of several dosages of eplerenone were evaluated in a double-blind, randomized, placebo-controlled, rising oral dose, sequential panel study of 40 healthy male subjects (five groups of eight subjects). The study medication was administered in three sequential dose panels, with each panel including eplerenone, spironolactone and placebo. […] Antialdosterone activity was determined following a fludrocortisone challenge on Days 12-13.
measure: Tmax (h)
Respond numerically; units are h and should not be typed.

# return recorded Tmax for entry COC(=O)C1CC2=CC(=O)CCC2(C)C23OC2CC2(C)C(CC[C@@]24CCC(=O)O4)C13 (stereo partly shown) [eplerenone] 1.1

====

# assayRemarks: Single dose study: plasma pharmacokinetics of eplerenone, open lactone ring form, spironolactone
# experimentalContext: male, human, plasma, po, 1000 mg
measure: concentration at 8 h
Units required after the number.

# return recorded concentration at 8 h for entry COC(=O)C1CC2=CC(=O)CCC2(C)C23OC2CC2(C)C(CC[C@@]24CCC(=O)O4)C13 (stereo partly shown) 2830 ng/mL

====

# assayRemarks: Single dose study: plasma pharmacokinetics of eplerenone, open lactone ring form, spironolactone
# experimentalContext: male, human, plasma, po, 100 mg
measure: concentration at 6 h (ng/mL)
Respond numerically; units are ng/mL and should not be typed.

# return recorded concentration at 6 h for entry COC(=O)C1CC2=CC(=O)CCC2(C)C23OC2CC2(C)C(CC[C@@]24CCC(=O)O4)C13 (stereo partly shown) 558

====

# assayRemarks: Single dose study: plasma pharmacokinetics of eplerenone, open lactone ring form, spironolactone
# experimentalContext: male, human, plasma, po, 10 mg
measure: concentration at 12 h (ng/mL)
Respond numerically; units are ng/mL and should not be typed.

# return recorded concentration at 12 h for entry COC(=O)C1CC2=CC(=O)CCC2(C)C23OC2CC2(C)C(CC[C@@]24CCC(=O)O4)C13 (stereo partly shown) 6

====

# assayRemarks: Single dose study: plasma pharmacokinetics of eplerenone, open lactone ring form, spironolactone
# experimentalContext: male, human, plasma, po, 10 mg
measure: Tmax (h)
Respond numerically; units are h and should not be typed.

# return recorded Tmax for entry COC(=O)C1CC2=CC(=O)CCC2(C)C23OC2CC2(C)C(CC[C@@]24CCC(=O)O4)C13 (stereo partly shown) [eplerenone] 1.3

====

# assayRemarks: Single dose study: plasma pharmacokinetics of eplerenone, open lactone ring form, spironolactone
# experimentalContext: male, human, plasma, po, 300 mg
measure: concentration at 28 h (ng/mL)
Respond numerically; units are ng/mL and should not be typed.

# return recorded concentration at 28 h for entry COC(=O)C1CC2=CC(=O)CCC2(C)C23OC2CC2(C)C(CC[C@@]24CCC(=O)O4)C13 (stereo partly shown) 21.1

====

# assayRemarks: Single dose study: plasma pharmacokinetics of eplerenone, open lactone ring form, spironolactone
# experimentalContext: male, human, plasma, po, 1000 mg
measure: concentration at 6 h (ng/mL)
Respond numerically; units are ng/mL and should not be typed.

# return recorded concentration at 6 h for entry COC(=O)C1CC2=CC(=O)CCC2(C)C23OC2CC2(C)C(CC[C@@]24CCC(=O)O4)C13 (stereo partly shown) 4150

====

# assayRemarks: Single dose study: plasma pharmacokinetics of eplerenone, open lactone ring form, spironolactone
# experimentalContext: male, human, plasma, po, 50 mg
measure: Cmax (ng/mL)
Respond numerically; units are ng/mL and should not be typed.

# return recorded Cmax for entry COC(=O)C1CC2=CC(=O)CCC2(C)C23OC2CC2(C)C(CC[C@@]24CCC(=O)O4)C13 (stereo partly shown) 797

====

# assayRemarks: Effect of food study: plasma pharmacokinetics fasted vs high-fat breakfast
# Assay type: in vivo, humans
# experimentalContext: male, human, plasma, oral, 100 mg, 100 mg eplerenone capsule; Fasted Conditions; −0.5 hours after dosing
measure: concentration at -0.5 h (ng/mL)
Respond numerically; units are ng/mL and should not be typed.

# return recorded concentration at -0.5 h for entry COC(=O)C1CC2=CC(=O)CCC2(C)C23OC2CC2(C)C(CC[C@@]24CCC(=O)O4)C13 (stereo partly shown) 0

====

# assayRemarks: Multiple dose study: plasma pharmacokinetics and urinary excretion
# Assay type: in vivo, humans
# experimentalContext: male, human, plasma, oral, 100 mg, eplerenone 100 mg Dose; Multiple Dose; read-out: T½ (converted)
measure: half-life (h)
Respond numerically; units are h and should not be typed.

# return recorded half-life for entry COC(=O)C1CC2=CC(=O)CCC2(C)C23OC2CC2(C)C(CC[C@@]24CCC(=O)O4)C13 (stereo partly shown) 4

====

# assayRemarks: Multiple dose study: plasma pharmacokinetics and urinary excretion
# Type: in vivo, humans
# experimentalContext: male, human, plasma, oral, 1000 mg, eplerenone 1000 mg Dose; Single Dose; read-out: T½ (converted)
measure: half-life (min)
Respond numerically; units are min and should not be typed.

# return recorded half-life for entry COC(=O)C1CC2=CC(=O)CCC2(C)C23OC2CC2(C)C(CC[C@@]24CCC(=O)O4)C13 (stereo partly shown) 522

====

# assayRemarks: Single dose study: plasma pharmacokinetics of eplerenone, open lactone ring form, spironolactone
# experimentalContext: male, human, plasma, po, 1000 mg
measure: half-life (h)
Respond numerically; units are h and should not be typed.

# return recorded half-life for entry COC(=O)C1CC2=CC(=O)CCC2(C)C23OC2CC2(C)C(CC[C@@]24CCC(=O)O4)C13 (stereo partly shown) 15.1

====

# assayRemarks: Single dose study: plasma pharmacokinetics of eplerenone, open lactone ring form, spironolactone
# experimentalContext: male, human, plasma, po, 100 mg
measure: Cmax (ng/mL)
Respond numerically; units are ng/mL and should not be typed.

# return recorded Cmax for entry COC(=O)C1CC2=CC(=O)CCC2(C)C23OC2CC2(C)C(CC[C@@]24CCC(=O)O4)C13 (stereo partly shown) [eplerenone] 1500

====

# assayRemarks: Multiple dose study: plasma pharmacokinetics and urinary excretion
# Format: in vivo, humans
# experimentalContext: male, human, plasma, oral, 100 mg, eplerenone 100 mg Dose; Single Dose
measure: Tmax
Units required after the number.

# return recorded Tmax for entry COC(=O)C1CC2=CC(=O)CCC2(C)C23OC2CC2(C)C(CC[C@@]24CCC(=O)O4)C13 (stereo partly shown) [eplerenone] 1.8 h

====

# assayRemarks: ADME study of [14C]eplerenone oral solution: plasma, whole blood, saliva pharmacokinetics
# Format: in vivo, humans
# experimentalContext: male, human, plasma; 100 mg oral solution of [14C]eplerenone; 36.0 hours after dosing
measure: concentration at 36 h (ng/mL)
Respond numerically; units are ng/mL and should not be typed.

# return recorded concentration at 36 h for entry COC(=O)C1CC2=CC(=O)CCC2(C)C23OC2CC2(C)C(CC[C@@]24CCC(=O)O4)C13 (stereo partly shown) 0

====

# assayRemarks: Single dose study: plasma pharmacokinetics of eplerenone, open lactone ring form, spironolactone
# experimentalContext: male, human, plasma, po, 100 mg
measure: concentration at 28 h (ng/mL)
Respond numerically; units are ng/mL and should not be typed.

# return recorded concentration at 28 h for entry COC(=O)C1CC2=CC(=O)CCC2(C)C23OC2CC2(C)C(CC[C@@]24CCC(=O)O4)C13 (stereo partly shown) [eplerenone] 6.1
